Measured logP of individual entries
Assay: log P determination
Conditions: pH 2.3
Endpoint Name: logP

[[record]]
compound = "FC(F)(F)Oc1ccc(-c2ccc(C3CCC(c4ccc(Cl)s4)=N3)cc2)cc1 (stereo not shown)"
endpoint_name = "logP"
recorded_result = 4.21

[[record]]
compound = "FC(F)(F)Oc1ccc(Oc2ccc(C3CCC(c4sccc4Cl)=N3)cc2)cc1 (stereo not shown)"
endpoint_name = "logP"
recorded_result = 4.5

[[record]]
compound = "FC(F)(F)Oc1ccc(-c2ccc(C3CCC(c4ncccc4C(F)(F)F)=N3)cc2)cc1 (stereo not shown)"
endpoint_name = "logP"
recorded_result = 5.06

[[record]]
compound = "FC(F)(F)Oc1ccc(-c2ccc(C3CCC(c4cccs4)=N3)cc2)cc1 (stereo not shown)"
endpoint_name = "logP"
recorded_result = 2.45

[[record]]
compound = "CC(C)(C)OC(=O)NC(CCC(=O)c1sccc1F)c1ccc(-c2ccc(OC(F)(F)F)cc2)cc1 (stereo not shown)"
endpoint_name = "logP"
recorded_result = 5.05

[[record]]
compound = "FC(F)(F)Oc1ccc(-c2ccc(C3CCC(c4ccsc4)=N3)cc2)cc1 (stereo not shown)"
endpoint_name = "logP"
recorded_result = 2.44

[[record]]
compound = "FC(F)(F)Oc1ccc(-c2ccc(C3CCC(c4sccc4Cl)=N3)cc2)cc1 (stereo not shown)"
endpoint_name = "logP"
recorded_result = 4.67

